The listing below reports pKi for compounds tested on Cannabinoid receptor 2 (Mus musculus, UniProt P47936).
Sequence (P47936 whole entry): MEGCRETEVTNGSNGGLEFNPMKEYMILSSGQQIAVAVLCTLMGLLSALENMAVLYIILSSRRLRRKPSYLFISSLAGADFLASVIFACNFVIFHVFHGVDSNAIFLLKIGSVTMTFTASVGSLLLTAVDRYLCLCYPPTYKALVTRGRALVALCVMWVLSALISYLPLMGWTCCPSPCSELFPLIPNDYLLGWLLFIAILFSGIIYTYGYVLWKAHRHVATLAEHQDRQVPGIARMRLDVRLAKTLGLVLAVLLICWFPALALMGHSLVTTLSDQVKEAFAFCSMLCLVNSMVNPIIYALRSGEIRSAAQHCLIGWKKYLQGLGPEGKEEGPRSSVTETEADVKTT
A value of pKi is the negative decimal logarithm of a concentration given in moles per litre.

Example compounds with recorded pKi:
                                   compound  measured_metric  observed_result
0  CCCC/C=C\C1(c2cc(O)c3c(c2)OC(C)(C)[C@@H]2CCC(=O)C[C@@H]32)CCCC1              pKi             8.28
1  CC1(C)Oc2cc(C3(CCCCCBr)CCCC3)cc(O)c2[C@@H]2CC(=O)CC[C@H]21              pKi             8.59
2  CCCC/C=C\C1(c2cc(O)c3c(c2)OC(C)(C)[C@@H]2CCC(=O)C[C@@H]32)CCC1              pKi             7.92

## Input Using the record for CCCCCCC(C)(C)c1cc(O)c2c(c1)OC(C)(C)[C@@H]1CCC(=O)C[C@@H]21 [NABILONE] , report its pKi.
## Output 8.74

## Input Okay, and "CCCCCc1cc(O)c2c(c1)OC(C)(C)[C@@H]1CCC(=O)C[C@@H]21" ?
## Output 6.58

## Input Okay, and "CCCCCCC1(c2cc(O)c3c(c2)OC(C)(C)[C@@H]2CC[C@@H](O)C[C@@H]32)CCC1" ?
## Output 8.38

## Input Okay, and "CC1(C)Oc2cc(C3(CCCCC#N)CCCC3)cc(O)c2[C@@H]2CC(=O)CC[C@H]21" ?
## Output 8.56

## Input Okay, and "CC1(C)Oc2cc(C3(CCCCCBr)CCC3)cc(O)c2[C@@H]2CC(=O)CC[C@H]21" ?
## Output 8.12

## Input Okay, and "CCCCCCC1(c2cc(O)c3c(c2)OC(C)(C)[C@@H]2CCC(=O)C[C@@H]32)SCCS1" ?
## Output 7.37

## Input Okay, and "CCCCCCC1(c2cc(O)c3c(c2)OC(C)(C)[C@@H]2CCC(=O)C[C@@H]32)CCCC1" ?
## Output 9.01

## Input Okay, and "CC1(C)Oc2cc(C3(CCCCCCBr)CCCC3)cc(O)c2[C@@H]2CC(=O)CC[C@H]21" ?
## Output 8.80

## Input Okay, and "CCCCCCC1(c2cc(O)c3c(c2)OC(C)(C)[C@@H]2CCC(=O)C[C@@H]32)CCC1" ?
## Output 7.86

## Input Okay, and "CC1(C)Oc2cc(C3(CCCCBr)CCCC3)cc(O)c2[C@@H]2CC(=O)CC[C@H]21" ?
## Output 7.86

* * *

Target: Cannabinoid receptor 1 (Rattus norvegicus, UniProt P20272)
Sequence (P20272 whole entry): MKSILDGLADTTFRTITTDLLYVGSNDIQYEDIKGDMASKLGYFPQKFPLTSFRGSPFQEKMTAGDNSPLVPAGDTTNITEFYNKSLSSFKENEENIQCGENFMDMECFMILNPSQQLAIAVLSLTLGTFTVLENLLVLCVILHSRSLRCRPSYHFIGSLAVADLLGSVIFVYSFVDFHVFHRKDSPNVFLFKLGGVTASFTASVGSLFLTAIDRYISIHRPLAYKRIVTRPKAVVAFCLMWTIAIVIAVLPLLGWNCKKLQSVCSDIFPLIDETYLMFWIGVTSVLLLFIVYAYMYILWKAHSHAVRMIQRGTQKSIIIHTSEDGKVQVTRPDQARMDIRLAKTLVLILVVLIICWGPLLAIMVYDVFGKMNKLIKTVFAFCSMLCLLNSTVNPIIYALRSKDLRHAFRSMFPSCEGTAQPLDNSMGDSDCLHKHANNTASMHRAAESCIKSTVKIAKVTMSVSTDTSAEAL
Assay: Displacement of [3H]CP55940 from rat brain CB1 receptor
The reader will find reported Ki values listed item by item below.
Give the value in nM but do not write nM after it.

Example compounds with recorded Ki:
In [3]: df
Out[3]:
                                   compound  measured_metric  unit_label  observed_result
0  CCCC/C=C\C1(c2cc(O)c3c(c2)OC(C)(C)[C@@H]2CCC(=O)C[C@@H]32)CCC1               Ki          nM             1.13
1  CCCCCCC(C)(C)c1cc(O)c2c(c1)OC(C)(C)[C@@H]1CCC(=O)C[C@@H]21 [NABILONE]               Ki          nM              2.2
2  CC1(C)Oc2cc(C3(CCCCCCBr)CCCC3)cc(O)c2[C@@H]2CC(=O)CC[C@H]21               Ki          nM             4.96
3  CCCCCc1cc(O)c2c(c1)OC(C)(C)[C@@H]1CCC(=O)C[C@@H]21               Ki          nM              333

## Input Using the record for "CC1(C)Oc2cc(C3(CCCCBr)CCCC3)cc(O)c2[C@@H]2CC(=O)CC[C@H]21" , report its Ki.
## Output 13.1

* * *

The listing below reports log10 of Ki for molecules tested on Cannabinoid receptor 1 (Rattus norvegicus, UniProt P20272).
Hey, these are logged values: log10 of Ki, nM being the unit before logging.

Example molecules with recorded log10 of Ki:
>>> df
                                item_smiles  observed_result
0  CC1(C)Oc2cc(C3(CCCCCBr)CCC3)cc(O)c2[C@@H]2CC(=O)CC[C@H]21             0.37
1  CCCCCCC1(c2cc(O)c3c(c2)OC(C)(C)[C@@H]2CCC(=O)C[C@@H]32)SCCS1             0.82
2  CCCC/C=C\C1(c2cc(O)c3c(c2)OC(C)(C)[C@@H]2CCC(=O)C[C@@H]32)CCCC1             0.09
3  CC1(C)Oc2cc(C3(CCCCCBr)CCC3)cc(O)c2[C@@H]2C[C@H](O)CC[C@H]21             0.14

## Input Using the record for "CC1(C)Oc2cc(C3(CCCCC#N)CCCC3)cc(O)c2[C@@H]2CC(=O)CC[C@H]21" , report its log10 of Ki.
## Output 0.50

## Input Okay, and "CCCCCCC1(c2cc(O)c3c(c2)OC(C)(C)[C@@H]2CCC(=O)C[C@@H]32)CCCC1" ?
## Output 0.25

## Input Okay, and "CC1(C)Oc2cc(C3(CCCCCBr)CCC3)cc(O)c2[C@@H]2C[C@@H](O)CC[C@H]21" ?
## Output 0.18

## Input Okay, and "CCCCCCC1(c2cc(O)c3c(c2)OC(C)(C)[C@@H]2CC[C@@H](O)C[C@@H]32)CCC1" ?
## Output -0.80

## Input Okay, and "CC1(C)Oc2cc(C3(CCCCCBr)CCCC3)cc(O)c2[C@@H]2CC(=O)CC[C@H]21" ?
## Output 0.01
